Test system: NCI/ADR-RES ovarian
Experiment: NCI-60 one-dose screen, 48 h
Details: 10 µM unless noted
This is part of a sample that, as a whole, favours compounds with a hit. Of some 83,000 tested, about 20% had one in any assay. The source made the active and inactive calls. The calls were made as follows: active = growth percent below 10; inactive = the rest.
Please reply with one of these outcomes: yes (1) = active, no (0) = inactive

Answered cases to consult:
molecule=Cc1ccc2nc(NC(=O)CSC(=S)N3CCN(c4ccccc4)CC3)sc2c1 label_class="no (0)"
molecule="CCN1C(=O)N(CC)C2Nn3c(s/c(=C\\c4ccccc4F)c3=O)=NC21 (centres undefined)" label_class="yes (1)"
molecule=CCOC(=O)c1c2c(n3cccc(Cl)c13)C(=O)c1ncccc1C2=O label_class="no (0)"
molecule=O=C(Nc1ccsc1C(=O)NC1CCCCC1)c1ccc(F)cc1 label_class="no (0)"
molecule=Cc1ccc(CN2CCC(C(=O)Nc3ccc(-c4cc5ccccc5[nH]4)cc3)CC2)o1 label_class="no (0)"
molecule=CCN(CC)c1cc(C)c2cc(NC(=O)c3cccc(OC)c3)ccc2n1 label_class="no (0)"

Ask: Outcome logged for CCOc1ccc(-c2nonc2NC(=O)c2cccc(C)c2)cc1OCC in this assay:
Reply: no (0)

Ask: Could you do the same for COC(=O)/C(=C\c1c(-c2ccccc2)[nH]c2ccccc12)S(C)(=O)=O , please?
Reply: yes (1)

Ask: How about CCOC(=O)c1cnc2c(C)cccc2c1Nc1ccc(C(C)=O)cc1 ?
Reply: no (0)

Ask: How about this molecule: Clc1ccc(Nc2scc3[n+]2CCC3)cc1
Reply: no (0)

Ask: Same lookup for COc1ccc2c(c1)C=C1CSCC3=Cc4cc(OC)ccc4OC13O2 , please.
Reply: yes (1)

Ask: Another molecule to check: CN1CCN(c2nc(Nc3ccc(O)cc3)nc3ccccc23)CC1
Reply: no (0)

====

Answer each item with its documented growth.
System: NCI-H23 lung
Test: NCI-60 one-dose screen, 48 h (100 = growth as untreated, 0 = no growth, -100 = all killed)
Conditions: 10 µM unless noted
The panel holds about 83,000 compounds, 20% with a hit somewhere; the sample as a whole holds those more often.
Answers are plain numbers, in %.

compound=O=C(Cn1cc(COc2ncnc3c2cnn3-c2ccccc2)nn1)Nc1cccc2ccccc12 target="NCI-H23 lung" assay_readout=growth data_value=89

Hey, can you go through the list below and give me growth for every item?
1. O=C1CCC(N2C(=O)c3cccc(NCCCCCCOc4ccc(Nc5nccc(Nc6ccccc6)n5)cc4)c3C2=O)C(=O)N1 (stereo not drawn)
2. COc1cccc2c1C=C1CCCCC3=Cc4c(OC)cccc4OC13O2

Reply:
1. 62.6
2. 55.9

====

Test system: PC-3 prostate
Assay: NCI-60 one-dose screen, 48 h
Conditions: 10 µM unless noted
The panel holds about 83,000 compounds, 20% with a hit somewhere; the sample as a whole holds those more often. Activity calls are given as the source filed them. The calls were made as follows: active = growth percent below 10; inactive = the rest.
Just give me one of these, please: active, inactive

Reference set (5 entries):
molecule="CCN1C(=O)N(CC)C2Nn3c(s/c(=C\\c4ccccc4F)c3=O)=NC21 (centres undefined)" label_class=inactive
molecule=O=C(Nc1ccc(-c2nc3cc4ccccc4cc3[nH]2)cc1)c1cccc(Br)c1 label_class=inactive
molecule=COc1cc(C=C2C(=O)N(C)C(=O)N(C)C2=O)cc(CN2CCCCC2)c1O label_class=inactive
molecule=CCCCOCc1cc(CN2CCN(C)CC2)c(O)c2ncccc12 label_class=inactive
molecule=O=c1c(-c2nc3ccccc3[nH]2)cc2ccccc2n1Cc1cn(Cc2ccc(F)cc2)nn1 label_class=inactive

Ask: Query: recorded result category for O=S1(=O)N(Cc2ccccc2)[C@@H](Cc2ccccc2)[C@H](O)[C@H](O)[C@H](Cc2ccccc2)N1Cc1ccccc1 in this test
Reply: active

Ask: Also O=C(Nc1nc2c(s1)CCc1c-2c(Br)n(Cc2ccccc2)c1Br)c1ccccc1 , if possible.
Reply: inactive

====

Tested on: MALME-3M melanoma
Experiment: NCI-60 one-dose screen, 48 h (100 = growth as untreated, 0 = no growth, -100 = all killed)
Details: 10 µM unless noted
Method: Cells are grown in 96 well plates and exposed to the test compound for 48 hours. Compounds are tested at a single concentration, which is 10^-5 M for most compounds. The reported endpoint is percent growth (GI% or GIPRCNT), where numbers from 0 - 100% represent growth inhibition, and numbers from -100% - 0 represent cell death. For example, a value of 40 represents 60% growth inhibition. A value of 0 means no net growth occurred over the course of the experiment. […]
The panel holds about 83,000 compounds, 20% with a hit somewhere; the sample as a whole holds those more often.
For each of the molecules below, state its growth.
One number for each entry, in %.

molecule=O=C(NC1CCN(Cc2ccccc2)CC1)c1cc(C(=O)NC2CCN(Cc3ccccc3)CC2)cc(C(=O)NC2CCN(Cc3ccccc3)CC2)c1 target="MALME-3M melanoma" assay_readout=growth scale_unit=% data_value=77.9
molecule="CC(C)CCNCC(O)Cn1c2ccccc2c2ccccc21 (stereo not drawn)" target="MALME-3M melanoma" assay_readout=growth scale_unit=% data_value=-12.3

Now look at this entry.
Ask: State the recorded growth for this entry: CS(=O)(=O)Nc1ccc(C(=O)NC(C(=O)NO)c2ccc(-c3cccc(F)c3)cc2)cc1 (stereo not drawn)
Reply: 92

====

Test system: SF-268 CNS
Experiment: NCI-60 one-dose screen, 48 h (100 = growth as untreated, 0 = no growth, -100 = all killed)
Settings: 10 µM unless noted
This is part of a sample that, as a whole, favours compounds with a hit. Of some 83,000 tested, about 20% had one in any assay. Active and inactive are the calls of the source. Rule for the calls: active = growth percent below 10; inactive = the rest.
Assign growth to each entry below.

Go through the list and state growth for each entry.
1. Nc1nc(N)c2c(n1)NC1(C=C(O)c3ccccc31)C1=C(N2)c2ccccc2C1=O (stereo not given)
2. CCOc1c(Br)cc(C2C(C(=O)OC)=CN(C)C=C2C(=O)OC)cc1OC
3. O=c1oc2ccc(Br)cc2c(=O)n1-c1ccc(Br)cc1F
4. O=C(/C=C/c1ccc(F)cc1)c1ccc(Nc2nc(NCCO)nc(Nc3ccc(Cl)cc3)n2)cc1
5. COc1cc(/C=C2\CN(C)C/C(=C\c3cc(CN4CCOCC4)c(O)c(OC)c3)C2=O)cc(CN2CCOCC2)c1O

Reply:
1. 104% (inactive)
2. 68.1% (inactive)
3. 12% (inactive)
4. 71.9% (inactive)
5. 56.9% (inactive)

====

Answer each item with its documented growth.
System: MALME-3M melanoma
Assay: NCI-60 one-dose screen, 48 h (100 = growth as untreated, 0 = no growth, -100 = all killed)
Settings: 10 µM unless noted
About 83,000 compounds went through this panel and 20% of them were active in at least one assay; those are over-represented in the sample as a whole.
Give bare numbers, in %.

compound=O=C(Nc1ccc(F)cc1F)c1cc(Cl)ccc1O target="MALME-3M melanoma" assay_readout=growth data_value=-21.9
compound=COc1ccc(Nc2cc(C)nc(NCc3ccccc3)n2)cc1 target="MALME-3M melanoma" assay_readout=growth data_value=13.6
compound=O=C1Nc2ccccc2/C1=C/c1cccs1 target="MALME-3M melanoma" assay_readout=growth data_value=93.6
compound=c1ccc(CNc2nc(Nc3ccccc3)nc3ccccc23)cc1 target="MALME-3M melanoma" assay_readout=growth data_value=-7.75
compound=O=C(CCc1nnc2sc(COc3ccccc3)nn12)c1nc2ncccc2[nH]1 target="MALME-3M melanoma" assay_readout=growth data_value=91.4

Ask: // fetch MALME-3M melanoma growth for CCOC(=O)C1=C(C)N=c2s/c(=C\c3cc(Cl)ccc3O)c(=O)n2C1c1ccc(OC)cc1 (stereo unspecified)
Reply: 109

====

For each entry below, report its growth value.
System: HCC-2998 colon
Test: NCI-60 one-dose screen, 48 h (100 = growth as untreated, 0 = no growth, -100 = all killed)
Settings: 10 µM unless noted
About 83,000 compounds went through this panel and 20% of them were active in at least one assay; those are over-represented in the sample as a whole.
Answers are plain numbers, in %.

// solved cases for growth follow
molecule=O=C(Nc1ccsc1C(=O)NC1CCCCC1)c1ccc(F)cc1 data_value=97
molecule=O=c1oc2ccc(I)cc2c(=O)n1-c1ccc(I)cc1F data_value=21
molecule=O=C(COc1cc(O)c2c(=O)cc(-c3ccccc3)oc2c1)Nc1ccccc1 data_value=99.7
molecule=COc1cc(/C=C2\CN(C)C/C(=C\c3cc(CN4CCCC4)c(O)c(OC)c3)C2=O)cc(CN2CCCC2)c1O data_value=96
molecule=CCOc1cccc(/C=N\Nc2nc(=O)cc(C(=O)OC)s2)c1O data_value=78
molecule=CCCc1c(C)c2sc(=O)[nH]c2[nH]c1=O data_value=106

For every listed record, write down its growth.
1. Oc1c(CN2CCN(c3ccccc3F)CC2)cc(Br)c2cccnc12
2. CC(=O)SC1CC(=O)C=C2CCC3C4CCC(=O)OC4(C)CCC3C21C (configuration not stated)
3. COc1ccc(-c2nocc2-c2cccs2)cc1
4. NCCCNc1nc2ccccc2c2c(=O)c3cc(F)ccc3sc12
5. O=C1c2cc(Br)ccc2Oc2cc([N+](=O)[O-])ccc2N1c1ccc(I)cc1F
6. O=C(NN1C(=O)CSC1c1ccc(Cl)cc1)c1[nH]c2ccc(F)cc2c1-c1ccccc1 (configuration not stated)
7. COC(=O)/C(CCC=C(C)C)=C1\[C@@H](OC(C)=O)C[C@@]2(C)[C@H]1C[C@@H](O)[C@H]1[C@@]3(C)CC[C@H](NCCO)[C@@H](C)[C@@H]3CC[C@@]12C

Reply:
[30.7, 99.3, 118, -68.8, 102, 6.69, 106]
